B1: CPEB3 Ribozyme (parent)
chain: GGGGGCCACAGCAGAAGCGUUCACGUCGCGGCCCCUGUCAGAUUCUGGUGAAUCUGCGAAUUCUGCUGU

Variants of: B1
test description: self-cleavage, relative activity (ratio to wild type); higher = more cleavage; co-transcriptional
# binning rule on self-cleavage: lo: < 0.2; med: ≥ 0.2 and < 0.7; hi: ≥ 0.7

Query :: Which of the defined bands does the recorded self-cleavage of G5A G68C sit within?
Result :: hi

Query :: Band for the recorded self-cleavage of G2A C66U ?
Result :: med

Query :: Please let me know in which category the item G37U U53C belongs.
Result :: med

Query :: GET /class?item= C39G U62C
Result :: med

Query :: GET /class?item= G50A A60U
Result :: med

Query :: Where would G4U U20C land among the classes by reported self-cleavage?
Result :: lo

Query :: Record G19U G31C — which class?
Result :: lo

Query :: // return the class label for A15G C32A
Result :: hi

Query :: // return the class label for G30A U53C
Result :: med

Query :: Tag the class for C7U G47A
Result :: hi

Query :: Input A8C U49C ; output its category
Result :: hi

Query :: Form: Item = C34A U53A ; Class = ?
Result :: med

Query :: Bin? G56C G68A
Result :: hi

Query :: For the record U36A C39A , report the class its self-cleavage corresponds to.
Result :: med

Query :: State the class of the variant shown: C39U U44A
Result :: med

Query :: Hey, which category is G11C G65C in, do you know?
Result :: med

Query :: State the band of C12G U53C
Result :: med

Query :: Note: place this variant into its band. Item: G25U A40U
Result :: med

Query :: // bin(item) where item = A15C G58C
Result :: hi

Query :: Into which bin does this variant go? C7U G58C
Result :: hi

Query :: Please report the category associated with A16U A40G , nothing else.
Result :: hi

Query :: Band for the recorded self-cleavage of U21A U46G ?
Result :: hi

Query :: State the band of C12U U38G
Result :: med

Query :: Each variant maps to one class by self-cleavage. Which class for G31A A42U ?
Result :: med

Query :: Band for the recorded self-cleavage of A10U U49C ?
Result :: hi

Query :: Which self-cleavage band matches G50U C63U ?
Result :: hi

Query :: GET /class?item= G14A A59U
Result :: med

Query :: Which bin should I file G5A C7A under?
Result :: lo

Query :: Could you tell me which band G14A G47C belongs to?
Result :: hi

Query :: Determine which band this variant sits in: G47U G56C
Result :: hi

Query :: Assign a category based on measured self-cleavage for U21C G25A and give only the class name.
Result :: lo

Query :: For C7U A59U , which self-cleavage bin applies?
Result :: med

Query :: // bin(item) where item = U46G U64C
Result :: hi

Query :: Any idea which band A52G U61C is in?
Result :: hi

Query :: Hello team, could you let me know which band the following variant falls into: U38G U55C
Result :: lo

Query :: Which category does the recorded self-cleavage put G3A C29G in?
Result :: lo

Query :: Entry C33A G65C belongs to which category?
Result :: med

Query :: # bin label for C7A C27A
Result :: lo

Query :: Which self-cleavage band matches A15G C63U ?
Result :: hi

Query :: Which class does C24A A60U fall in?
Result :: med

Query :: State the class of the variant shown: G17A C32G
Result :: lo

Query :: Band for G1U G3U ?
Result :: lo

Query :: Which band does U53C G58C fall in?
Result :: hi

Query :: Which bin should I file G2U G56C under?
Result :: lo

Query :: # bin lookup: classify G19A C27G by its self-cleavage
Result :: med

Query :: Hi there! Could you help me figure out the category for C6G C66U please?
Result :: med

Query :: Class label required: C29U G56A
Result :: med

Query :: Hey, which category is G5C U67G in, do you know?
Result :: med

Query :: Band for the recorded self-cleavage of C33U G48C ?
Result :: hi

Query :: Which class does U21G A60U fall in?
Result :: med

Query :: Which of the defined bands does the recorded self-cleavage of G30U U69A sit within?
Result :: med

Query :: # classify by self-cleavage band: G50A G58U
Result :: hi

Query :: For the record C12A A16C , report the class its self-cleavage corresponds to.
Result :: lo

Query :: Form: Item = C32A U55C ; Class = ?
Result :: med

Query :: Which band does A13G G14A fall in?
Result :: med

Query :: In plain terms, what class is G4C G47U ?
Result :: med

Query :: Category lookup for the variant A16U G47A
Result :: hi

Query :: Record A15C G47U — which class?
Result :: hi

Query :: Using the reported self-cleavage, which band applies to C24A U43G ?
Result :: med

Query :: Could you place G30U C66A in its proper category? Many thanks.
Result :: med

Query :: Pick a category. Item: G17C U67G
Result :: med

Query :: Band for G14A C33A ?
Result :: med

Query :: Where would G48A A60U land among the classes by reported self-cleavage?
Result :: med

Query :: Band assignment needed for U46C U53G please.
Result :: hi

Query :: Could you place C12A G14C in its proper category? Many thanks.
Result :: lo

Query :: Lab note: which band did G2A G25C land in?
Result :: lo

Query :: Assign a category based on measured self-cleavage for A23U C63A and give only the class name.
Result :: hi

Query :: Entry G50C U64C belongs to which category?
Result :: hi

Query :: # bin label for G3U C63U
Result :: lo

Query :: Lab note: sort G19A U36A into the matching self-cleavage band.
Result :: lo

Query :: Would you mind sorting C29U U38C into the appropriate category?
Result :: lo

Query :: Lab note: sort G14U A51C into the matching self-cleavage band.
Result :: med

Query :: Into which category would you place A40U A60C ?
Result :: med

Query :: Assign a bin to G11U C34U
Result :: hi

Query :: Bin? U43G G48C
Result :: hi

Query :: Determine which band this variant sits in: C7A A15C
Result :: lo

Query :: Please let me know in which category the item C29G G31U belongs.
Result :: lo

Query :: # classify by self-cleavage band: G17C A23U
Result :: lo

Query :: For this variant, which bin applies? C32U C54A
Result :: hi

Query :: State the band of U21A C66A
Result :: hi

Query :: Could you place A8G A23U in its proper category? Many thanks.
Result :: hi

Query :: For the record G3C A60G , report the class its self-cleavage corresponds to.
Result :: lo

Query :: Just checking, what class would you give C33U C57U here?
Result :: med

Query :: Exam item: assign A52G G68C to the correct category.
Result :: hi

Query :: // return the class label for C39A G41U
Result :: med
